# tested-system: PI3-kinase p110-delta/p85-alpha (Homo sapiens, UniProt O00329)
# Sequence (P27986 whole entry): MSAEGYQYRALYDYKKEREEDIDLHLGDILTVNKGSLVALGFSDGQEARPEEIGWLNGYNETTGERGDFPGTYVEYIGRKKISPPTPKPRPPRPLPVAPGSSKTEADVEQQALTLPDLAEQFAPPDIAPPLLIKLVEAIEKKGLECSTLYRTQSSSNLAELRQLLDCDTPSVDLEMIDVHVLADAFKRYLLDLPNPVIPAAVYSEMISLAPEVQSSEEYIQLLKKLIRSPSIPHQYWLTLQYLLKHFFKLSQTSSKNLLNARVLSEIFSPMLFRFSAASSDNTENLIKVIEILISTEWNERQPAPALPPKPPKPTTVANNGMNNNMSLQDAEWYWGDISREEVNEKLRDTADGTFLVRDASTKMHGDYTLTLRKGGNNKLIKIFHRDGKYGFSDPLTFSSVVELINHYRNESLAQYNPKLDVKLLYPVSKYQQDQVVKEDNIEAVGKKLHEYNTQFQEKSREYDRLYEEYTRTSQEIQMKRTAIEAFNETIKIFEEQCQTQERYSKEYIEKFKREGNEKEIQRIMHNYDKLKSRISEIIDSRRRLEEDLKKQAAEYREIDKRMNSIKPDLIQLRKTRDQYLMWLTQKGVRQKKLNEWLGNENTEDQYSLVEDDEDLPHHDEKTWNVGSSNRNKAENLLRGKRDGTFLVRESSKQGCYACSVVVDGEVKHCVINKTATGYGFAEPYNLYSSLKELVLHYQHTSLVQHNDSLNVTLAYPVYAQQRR
# Sequence (O00329 whole entry): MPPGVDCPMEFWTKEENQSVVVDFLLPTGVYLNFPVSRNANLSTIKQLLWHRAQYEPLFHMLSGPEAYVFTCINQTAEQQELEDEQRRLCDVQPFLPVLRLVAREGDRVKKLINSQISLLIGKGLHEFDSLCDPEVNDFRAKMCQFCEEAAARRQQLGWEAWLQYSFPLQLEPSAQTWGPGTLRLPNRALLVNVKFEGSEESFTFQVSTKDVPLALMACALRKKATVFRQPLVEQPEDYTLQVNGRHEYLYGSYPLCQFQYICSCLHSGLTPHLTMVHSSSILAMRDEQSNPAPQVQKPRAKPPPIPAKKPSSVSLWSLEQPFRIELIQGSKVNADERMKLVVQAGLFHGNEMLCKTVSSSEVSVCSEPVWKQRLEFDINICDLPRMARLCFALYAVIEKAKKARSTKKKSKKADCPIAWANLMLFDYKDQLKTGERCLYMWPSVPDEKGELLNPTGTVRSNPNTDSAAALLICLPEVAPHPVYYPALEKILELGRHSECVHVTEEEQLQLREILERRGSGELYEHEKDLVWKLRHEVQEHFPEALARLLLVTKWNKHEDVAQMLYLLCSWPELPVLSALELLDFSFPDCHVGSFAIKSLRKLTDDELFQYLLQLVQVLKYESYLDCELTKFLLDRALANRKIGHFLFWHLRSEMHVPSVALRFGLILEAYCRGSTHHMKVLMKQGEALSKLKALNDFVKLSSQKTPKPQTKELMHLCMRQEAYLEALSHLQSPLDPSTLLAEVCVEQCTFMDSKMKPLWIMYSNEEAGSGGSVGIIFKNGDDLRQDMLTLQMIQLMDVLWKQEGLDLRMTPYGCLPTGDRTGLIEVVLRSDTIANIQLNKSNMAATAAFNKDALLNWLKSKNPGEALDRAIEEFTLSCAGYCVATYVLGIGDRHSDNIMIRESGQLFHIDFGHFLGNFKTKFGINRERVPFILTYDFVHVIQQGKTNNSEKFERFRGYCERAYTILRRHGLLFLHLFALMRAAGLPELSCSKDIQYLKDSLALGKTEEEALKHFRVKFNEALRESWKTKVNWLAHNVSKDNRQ
# experiment-notes: Inhibition of N-terminal His6-tagged recombinant full-length human p110delta/untagged recombinant full length p85alpha expressed in baculovirus infected Sf21 cells using phosphatidylinositol as substrate in presence of gamma-32P-ATP after 5 mins by thin layer chromatographic method
Examples of compounds with documented IC50 follow.

Some compounds with known IC50 results, for comparison:
molecule=COc1cc(-c2nn(Cc3cc4cccc(C)c4c(=O)n3-c3ccccc3F)c3ncnc(N)c23)ccc1Cl result="< 10 µM"
molecule=Cc1cccc2cc(Cn3nc(/C=C4/CCNC4=O)c4c(N)ncnc43)n(-c3ccccc3F)c(=O)c12 result="< 10 µM"

Turning to the following compound.
Recorded result, Cc1ccccc1-n1c(Cn2nc(CC#N)c3c(N)ncnc32)cc2cccc(C)c2c1=O , IC50: < 0.1 µM
